- Test system: pcDNA3-transfected HEK293 cells
- test: CRE-Luc luciferase reporter assay in pcDNA3-transfected HEK293 cells
- Format: cell-based, human
- test_conditions: pcDNA3-transfected HEK293 cells (no receptor); Fig. 3d
pEC50: −log10 of the molar value. No end group written: not given here.
quantity_kind: pEC50

- QDAMLAPPDRPSEFRSPDQLRQYLKALNEYYAIVGRPRF-NH2 [Hdh-NPF]: 6.22

Data origin: paper PMC8536682
